Source of measurements: the RNAGym collection of RNA variant scans (doi:10.1093/nar/gkz1192)

B1: CPEB3 Ribozyme (parent)
chain: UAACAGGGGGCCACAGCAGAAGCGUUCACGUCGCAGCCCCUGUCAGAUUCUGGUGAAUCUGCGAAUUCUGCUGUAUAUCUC

Variants of: B1
Test: self-cleavage, relative activity (ratio to wild type); higher = more cleavage; in vitro, sequencing
The variants listed here are annotated with their self-cleavage.
MEASUREMENT TYPE: self-cleavage

> print(dat)
    variant.notation  measurement.type  measured.result
 1         C29U A77G     self-cleavage             0.61
 2         C11A U72A     self-cleavage             0.15
 3          G7U U25C     self-cleavage              0.2
 4         C50A A65G     self-cleavage             0.31
 5         G10C G73A     self-cleavage             0.35
 6         G24A U80A     self-cleavage             0.24
 7         A35U A56C     self-cleavage             0.23
 8         U49A A65C     self-cleavage             0.13
 9         U25C C81U     self-cleavage             0.15
10         C11G C39A     self-cleavage             0.38
11          A5U A13G     self-cleavage             1.01
12         C32U A35U     self-cleavage             0.32
13         U31C U67C     self-cleavage             0.26
14         C29G U74C     self-cleavage             0.31
15              C14U     self-cleavage             1.15
16         C29G U69G     self-cleavage             0.12
17         A35U A65G     self-cleavage             0.26
18          A3G A77U     self-cleavage             0.99
19         A15C A35G     self-cleavage             1.08
20         U69A A75U     self-cleavage             0.66
21         C12U U31C     self-cleavage             1.28
22         U60A U80G     self-cleavage             0.84
23          A2G A15U     self-cleavage             0.41
24         A21C A65G     self-cleavage             0.34
25         U43C U54A     self-cleavage             0.69
26         U69C C81G     self-cleavage             0.89
27         A15U U76C     self-cleavage             0.88
28         U51A A77U     self-cleavage             1.03
29         A15G U60G     self-cleavage             0.34
30         A13G A20G     self-cleavage              0.6
31         A28U A75U     self-cleavage             0.99
32         U41G A57G     self-cleavage             0.23
33          A3G A35G     self-cleavage             1.21
34         U31G U69A     self-cleavage             0.22
35         A21C G46A     self-cleavage             0.37
36         A28U C50A     self-cleavage             0.53
37         C32U C68G     self-cleavage             0.13
38         U58C C62U     self-cleavage             0.22
39         G10U U49G     self-cleavage             0.14
40          G9U A56C     self-cleavage             0.29
41          A5G A13C     self-cleavage             0.76
42         U74C U76A     self-cleavage              1.3
43          G8U U80G     self-cleavage              0.2
44         U49C G55U     self-cleavage             0.24
45         A75C U78C     self-cleavage             1.15
46         U43A A56G     self-cleavage             0.97
